Experiment: Volume of distribution at steady state in CD-1 mouse at 1 mg/kg, iv by LC-MS/MS analysis
Assay type: ADME, organism-based
Applied Conditions: mouse, in vivo, iv, 1 mg/kg
Experimental Endpoint: Vdss (L/kg)

| Compound String | Value |
| --- | --- |
| CCCc1cc(C(=O)OC)c(NC(=O)C2CCN(C(C)=O)CC2)s1 | 5.96 |

====

Experiment: AUC (infinity) in CD-1 mouse at 1 mg/kg, iv by LC-MS/MS analysis
Assay type: ADME, organism-based
Applied Conditions: in vivo

| Compound String | Value Unit | AUC(0-inf) |
| --- | --- | --- |
| Nc1ccc(/N=N/c2cccc(F)c2F)c(N)n1 | ng·h/mL | 97 |
| CCCc1cc(C(=O)OC)c(NC(=O)C2CCN(C(C)=O)CC2)s1 | ng·h/mL | 38.2 |

====

Experiment: C0 in CD-1 mouse at 1 mg/kg, iv by LC-MS/MS analysis
Format: ADME, organism-based
Applied Conditions: CD-1, mouse, in vivo, read-out: C0

| Compound String | C0 / ng/mL |
| --- | --- |
| Nc1ccc(/N=N/c2cccc(F)c2F)c(N)n1 | 412 |

====

List of half-life values.
Experiment: Half life in CD-1 mouse at 100 mg/kg, ip by LC-MS/MS analysis
Type: ADME, organism-based
Applied Conditions: in vivo

| Compound String | Value Unit | half-life |
| --- | --- | --- |
| CCCc1cc(C(=O)OC)c(NC(=O)C2CCN(C(C)=O)CC2)s1 | h | 5.67 |
| Nc1ccc(/N=N/c2cccc(F)c2F)c(N)n1 | h | 4.48 |

====

Experiment: Tmax in CD-1 mouse at 100 mg/kg, ip by LC-MS/MS analysis
Assay type: ADME, organism-based
Applied Conditions: in vivo
Measured Tmax values are reported for all entries that follow.

| Compound String | Tmax / min |
| --- | --- |
| CCCc1cc(C(=O)OC)c(NC(=O)C2CCN(C(C)=O)CC2)s1 | 15 |
| Nc1ccc(/N=N/c2cccc(F)c2F)c(N)n1 | 25 |

====

Experiment: AUClast in CD-1 mouse at 1 mg/kg, iv by LC-MS/MS analysis
Type: ADME, organism-based
Applied Conditions: in vivo
Some compounds, each annotated with its measured AUC(0-t).

| Compound String | AUC(0-t) (ng·h/mL) |
| --- | --- |
| CCCc1cc(C(=O)OC)c(NC(=O)C2CCN(C(C)=O)CC2)s1 | 37.3 |
| Nc1ccc(/N=N/c2cccc(F)c2F)c(N)n1 | 97 |

====

Tested On: DNA repair protein REV1 (Homo sapiens, UniProt Q9UBZ9)
Sequence (Q9UBZ9 whole entry): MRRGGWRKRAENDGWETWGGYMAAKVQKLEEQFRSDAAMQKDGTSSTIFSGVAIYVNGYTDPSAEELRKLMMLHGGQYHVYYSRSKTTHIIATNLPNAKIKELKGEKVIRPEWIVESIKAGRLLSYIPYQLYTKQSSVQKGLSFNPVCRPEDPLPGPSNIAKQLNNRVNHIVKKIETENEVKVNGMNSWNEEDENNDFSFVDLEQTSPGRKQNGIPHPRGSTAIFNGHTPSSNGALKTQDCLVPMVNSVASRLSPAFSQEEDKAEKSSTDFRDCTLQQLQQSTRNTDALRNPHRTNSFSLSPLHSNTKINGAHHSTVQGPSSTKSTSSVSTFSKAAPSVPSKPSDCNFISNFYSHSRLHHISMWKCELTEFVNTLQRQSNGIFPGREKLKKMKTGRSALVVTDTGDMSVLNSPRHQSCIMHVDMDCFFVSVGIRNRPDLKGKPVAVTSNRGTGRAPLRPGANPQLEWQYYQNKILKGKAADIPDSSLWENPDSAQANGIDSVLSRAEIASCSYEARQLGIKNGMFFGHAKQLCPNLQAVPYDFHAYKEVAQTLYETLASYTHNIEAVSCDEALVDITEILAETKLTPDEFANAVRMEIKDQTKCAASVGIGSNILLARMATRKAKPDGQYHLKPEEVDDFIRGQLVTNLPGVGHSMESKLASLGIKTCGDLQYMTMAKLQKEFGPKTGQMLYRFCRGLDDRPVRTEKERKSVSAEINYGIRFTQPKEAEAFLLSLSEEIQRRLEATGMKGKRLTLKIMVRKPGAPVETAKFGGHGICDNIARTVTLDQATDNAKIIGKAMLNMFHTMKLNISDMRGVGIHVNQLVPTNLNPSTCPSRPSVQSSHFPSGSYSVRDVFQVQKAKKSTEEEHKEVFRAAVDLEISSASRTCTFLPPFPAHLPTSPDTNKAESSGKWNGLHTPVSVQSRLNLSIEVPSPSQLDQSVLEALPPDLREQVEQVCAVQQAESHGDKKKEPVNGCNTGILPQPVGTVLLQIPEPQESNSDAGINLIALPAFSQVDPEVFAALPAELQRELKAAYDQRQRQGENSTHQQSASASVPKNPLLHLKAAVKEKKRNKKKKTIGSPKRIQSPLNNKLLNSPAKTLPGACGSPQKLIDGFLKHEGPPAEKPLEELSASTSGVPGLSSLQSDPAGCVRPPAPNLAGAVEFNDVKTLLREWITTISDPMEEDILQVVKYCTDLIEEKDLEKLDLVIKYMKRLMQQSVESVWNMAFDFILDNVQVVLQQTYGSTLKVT
Experiment: Binding affinity to C-terminal human REV-1 assessed as dissociation constant incubated for 30 mins by MST assay
pKd: −log10 of the molar value.
Each entry below lists one item and its recorded pKd value.

| Compound String | Inequality Sign | pKd |
| --- | --- | --- |
| CCCc1cc(C(=O)OC)c(NC(=O)C2CCN(C(C)=O)CC2)s1 | = | 5.17 |
| Cc1cc(C)c2nc(-c3ccncc3)cc(C(=O)NCCCn3ccnc3)c2c1 | < | 3.70 |
| Nc1ccc(/N=N/c2cccc(F)c2F)c(N)n1 | = | 4.68 |
| COc1ccc(OC)c(-c2csc(N3CCN(C(=O)c4ccco4)CC3)n2)c1 | < | 3.70 |

====

Experiment: MRT (infinity) in CD-1 mouse at 1 mg/kg, iv by LC-MS/MS analysis
Type: ADME, organism-based
Applied Conditions: CD-1, mouse, in vivo
Experimental Endpoint: MRT inf

| Compound String | Value |
| --- | --- |
| Nc1ccc(/N=N/c2cccc(F)c2F)c(N)n1 | 15.8 min |

====

Listed here: items and their measured intrinsic clearance (CLint).
Experiment: Metabolic stability in human liver microsomes assessed as intrinsic clearance at 1 uM incubated upto 60 mins by LC-MS/MS analysis
Type: ADME, Microsome
Applied Conditions: 1 h

| Molecule | Inequality Sign | intrinsic clearance (CLint) [µL/min/mg] |
| --- | --- | --- |
| CC(=O)C(C)n1c(CN2CCN(c3cccc(Cl)c3)CC2)nc2c1c(=O)n(C)c(=O)n2C (stereo not drawn) | = | 202 |
| CCCc1cc(C(=O)OC)c(NC(=O)C2CCN(C(C)=O)CC2)s1 | = | 18.8 |
| COc1ccc(OC)c(-c2csc(N3CCN(C(=O)c4ccco4)CC3)n2)c1 | = | 58.8 |
| Cc1cc(C)c2nc(-c3ccncc3)cc(C(=O)NCCCn3ccnc3)c2c1 | = | 148 |
| Nc1ccc(/N=N/c2cccc(F)c2F)c(N)n1 | > | 300 |
| Cc1ccc(C(=O)N2CCN(c3ccccc3)CC2)cc1S(=O)(=O)N1CCOCC1 | = | 210 |
| Cc1cccn2c(=O)c3cc(C(=O)N[C@@H](C)c4ccccc4)c(N)[n+](CCOCCO)c3nc12 | = | 14.2 |
| CCCCc1ccc(-n2nnc(C(=O)N(C)C3CCS(=O)(=O)C3)c2C)cc1 (stereo not drawn) | = | 27.8 |
